Collected melting point values appear next to each entry.
Quick note: unit goes after the number.

// worked examples, melting point included
O=C(NC1CC1)c1cc(Nc2nc(N3CCCC3c3ccccn3)nc3ccoc23)[nH]n1 (centres unmarked) [Compound 12E] ... 238.4 °C
O=C(NC1CC1)c1cc(Nc2nc(N3CCC[C@H]3CO)nc3ccoc23)n[nH]1 [Compound 15C] ... 96.8 °C
CN(C)c1nc(Nc2cc(C(=O)NC3CCC3)n[nH]2)c2occc2n1 [Compound 19A] ... 270.8 °C
O=C(NC1CCC1)c1cc(Nc2nc(N3CCCC3c3ccccn3)nc3ccoc23)n[nH]1 (centres unmarked) [Compound 14F] ... 274.3 °C

Switching to the query record.
Input: Return melting point (reported value) for this molecule: O=C(NC1CCC1)c1cc(Nc2nc(N3CCCC3c3ccccn3)nc3ccoc23)[nH]n1 (centres unmarked) [Compound 13E]
Output: 250.1 °C
